- Tested Target: A-Raf kinase (Homo sapiens, UniProt P10398, Y301D/Y302D)
- Construct: purchased Sigma
- Sequence (P10398 with tags, fused parts or gaps Y301D/Y302D): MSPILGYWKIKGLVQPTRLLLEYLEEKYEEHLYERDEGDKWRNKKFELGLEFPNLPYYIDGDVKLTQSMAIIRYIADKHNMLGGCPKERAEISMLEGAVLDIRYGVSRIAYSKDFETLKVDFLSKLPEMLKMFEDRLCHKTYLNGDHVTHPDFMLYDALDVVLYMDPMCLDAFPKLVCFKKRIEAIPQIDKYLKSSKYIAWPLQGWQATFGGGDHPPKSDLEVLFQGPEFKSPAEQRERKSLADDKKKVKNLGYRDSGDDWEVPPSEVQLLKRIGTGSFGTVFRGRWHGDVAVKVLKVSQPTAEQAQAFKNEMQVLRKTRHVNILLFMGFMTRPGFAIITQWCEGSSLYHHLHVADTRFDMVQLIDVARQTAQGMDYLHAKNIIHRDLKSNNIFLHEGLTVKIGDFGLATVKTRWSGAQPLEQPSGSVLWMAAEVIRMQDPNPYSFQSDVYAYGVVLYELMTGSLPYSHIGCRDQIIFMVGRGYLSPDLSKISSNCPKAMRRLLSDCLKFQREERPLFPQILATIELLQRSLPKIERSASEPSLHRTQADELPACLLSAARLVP
- Measurement Description: Biochemical assay for A-Raf.2 (coupled pyruvate kinase/lactate dehydrogenase)
- Condition Details: read-out: ARAF.2 IC50
Please respond with reported IC50 for every item in the list.

Data point: CNC(=O)c1cc(-c2cc(-c3cc(NC(=O)N4CC[C@H](C(F)(F)F)C4)ccc3C)ccn2)ccn1 ; IC50 = > 1000 nM

Data point: COC(=O)Nc1cc(-c2cncc(-c3cc(NC(=O)N4CC[C@H](C(F)(F)F)C4)ccc3C)c2)ncn1 ; IC50 = 100 to 500 nM

Data point: CNC(=O)c1cc(-c2cncc(-c3cc(NC(=O)N4CC[C@H](C(F)(F)F)C4)ccc3C)c2)ncn1 ; IC50 = > 1000 nM

Data point: CNC(=O)c1cc(-c2cncc(-c3cc(NC(=O)N4CC[C@H](C(F)(F)F)C4)ccc3C)c2)ccn1 ; IC50 = > 1000 nM

Data point: Cc1ccc(NC(=O)N2CC[C@H](C)C2)cc1-c1cncc(-c2cc(NC(=O)C3CC3)ncn2)c1 ; IC50 = ≤ 100 nM

Data point: CNC(=O)c1cc(-c2cncc(-c3cc(NC(=O)N4CC[C@H](C(C)C)C4)ccc3C)c2)ccn1 ; IC50 = > 1000 nM

Data point: CNC(=O)c1cc(-c2cc(-c3cc(NC(=O)N4CC[C@H](C(C)C)C4)ccc3C)ccn2)ccn1 ; IC50 = > 1000 nM

Data point: CNC(=O)c1cc(-c2cncc(-c3cc(NC(=O)N4CC[C@H](C(C)C)C4)ccc3C)c2)ncn1 ; IC50 = > 1000 nM
